The entries below come with measured pKd values attached.
Biological target: SARS-CoV-2 spike N-terminal domain (NTD), antigen of Example 10 (SARS-CoV-2, UniProt P0DTC2 14-305)
pKd: −log10 of the molar value.
OBSERVABLE: pKd

BINDER	OBSERVABLE	NUMERIC_READOUT
IMPI-054 (antibody, V domains shown) VH: EVQLVESGGGLIQPGGSLRLSCAASGLTVSSNYMSWVRQAPGKGLEWVSIIYSGGSTYYADSVKGRFTISRDNSKNTLYLQMNSLRAEDTAVYYCARLGGYYYYGMDVWGQGTTVTVSS VL: DIQMTQSPSSLSASVGERVTITCQASQDIRNYLNWYQKKPGKAPKLLIYDSSNLETGVPSRFSGSGSGTDFTFTISSLQPEDIATYYCQQYDNLPITFGQGTRLEIK	pKd	6.22
IMPI-055 (antibody, V domains shown) VH: QVQLVQSGAEVKKPGASVKVSCKASGYTFTSYDINWVRQATGQGLEWMGWMNPNSGNTGYAQKFQGRVTMTRDTSINTAYMELSSLRSEDTAVYFCARGGRYCSDVTCYSGEPFDYWGQGTLVTVSS VL: EIMLTQSPDFQSVTPKEKVTITCRASQSIGSSLHWYQQKPDQSPKLLIKFASQSISGVPSRFSGSGSGTDFTLTINSLEAEDAAAYYCHQSSSLPHTFGPGTKVEIK	pKd	5.87
IMPI-059 (antibody, V domains shown) VH: EVQLVESGGGLIQPGGSLRLSCAASGFTVSSIYMSWVRQAPGKGLEWVSIIYSRGSTDYADSVKGRFTISRDISKNTLYLQMNSLRAEDTAVYYCARDGTMVRGVHAFDIWGQGTMVTVSS VL: DIQMTQSPPSLSASIGDRVTITCQASQDISNYLNWYQQKPGKAPKLLIYDASNLETGVPSRFSGSGSGTDFTLTISNLQPEDIVTYYCQQYDNLPSSFGQGTKLEIK	pKd	5.78
